Listed compounds paired with reported Growth Rate
- Test system: Fibroblast
- experimental-protocol: Incucyte cell viability with human fibroblast; note: filed as whole numbers so only -1 and 0 and 1 occur
- Type: toxicity, cell-based
- stated-conditions: 12 h, 10 µM, compound concentration 10 uM, replicate number 1, timepoint 12 hours
API doc: respond with a numeric literal and nothing else, no unit.

Below, each entry is followed by its recorded Growth Rate result.
| compound | Growth Rate |
| --- | --- |
| Cc1ccc(NC(=O)Nc2cc(C(F)(F)F)ccc2F)cc1Nc1ccc2c(c1)NC(=O)/C2=C\c1ccc[nH]1 | 0 |
| COc1ncc(F)cc1CNc1ccc(Cc2c[nH]c3ncc(C)cc23)c(F)n1 | 1 |
| Cc1c(Nc2ccc(S(=O)(=O)N3CCN(C)CC3)cc2F)nc2ccc(Nc3cnn(C4CC4)c3)cn2c1=O | 0 |
| C[C@@H](NC(=O)Nc1cc2[nH]ncc2c(CO)n1)c1ccccc1 | 1 |
| CCc1cc(Nc2nccc(-c3c(-c4ccc(OC)c(C(=O)Nc5c(F)cccc5F)c4)nc4ccccn34)n2)c(OC)cc1N1CCC(N2CCN(S(C)(=O)=O)CC2)CC1 | 1 |
| O=C(NNS(=O)(=O)c1ccccc1)c1cc(-c2ccnnc2)ccc1F | 1 |

Prompt: Provide the documented Growth Rate with Fibroblast as the system for CN(CCOc1ccc(CC2SC(=O)NC2=O)cc1)c1ccccn1 (stereo not drawn)
Response: 1

Prompt: Provide the documented Growth Rate with Fibroblast as the system for `C/C(=N\NC(=O)[C@@H]1C(=O)NC[C@H]1c1ccccc1)c1cccc(Br)c1`
Response: 0

====

- Tested on: HEK-293T
- experimental-protocol: Multiplex assay against HEK293T
- Assay type: toxicity, cell-based
- stated-conditions: human, 48 h, 1 µM, compound concentration 1 uM, replicate 1
readout-label: Population Fragmented Nuclei (%)
State the answer as a number, implicitly in %.

Below, each entry is followed by its recorded Population Fragmented Nuclei (%) result.
| molecule | target-under-test | Population Fragmented Nuclei (%) |
| --- | --- | --- |
| CC(C)[C@H](CO)Nc1nc(Nc2cccc(Cl)c2)c2ncn(C(C)C)c2n1 | HEK-293T | 18 |
| Cc1c(P(=S)(c2ccccc2)c2ccccc2)n2ccccc2[n+]1C/C=C/c1ccccc1.[Br-] | HEK-293T | 24 |

Prompt: State the recorded Population Fragmented Nuclei (%) for this entry: `CC(/C=C1\SC(=S)N(CCCC(=O)Nc2ccc(C(=O)O)c(O)c2)C1=O)=C\c1ccccc1`
Response: 19

Prompt: State the recorded Population Fragmented Nuclei (%) for this entry: `Cl.NC[C@@H]1O[C@H](C23CC4CC(CC(C4)C2)C3)Cc2c1ccc(O)c2O`
Response: 11

Prompt: State the recorded Population Fragmented Nuclei (%) for this entry: CN1C(=O)[C@@H](NC(=O)c2cc3ccccc3[nH]2)N=C(c2ccccc2)c2ccccc21 [DEVAZEPIDE]
Response: 15

Prompt: State the recorded Population Fragmented Nuclei (%) for this entry: `C=CC(=O)Nc1cc(-n2c(=O)ccc3cnc4ccc(-c5ccc(NS(C)(=O)=O)cc5)cc4c32)ccc1C`
Response: 21

Prompt: State the recorded Population Fragmented Nuclei (%) for this entry: `CCCc1cc(C)[nH]c(=O)c1CNC(=O)c1cc(-c2ccc(N3CCN(C(C)C)CC3)nc2)cc2c1cnn2C(C)C`
Response: 19

Prompt: State the recorded Population Fragmented Nuclei (%) for this entry: `CN(c1cc(C(F)(F)F)nc(OCCC(=O)O)n1)c1cccc2c1CCC2`
Response: 21
